assay: Lipophilicity, log P of the compound; type: physicochemical; details: octanol/water
Measured Property: logP
API doc: respond with a numeric literal and nothing else, no unit.

COc1ccc(CNCc2c(-c3nnc(SC(C)C)n3-c3ccccc3)n(C)c3ccccc23)cc1 :: 6.27

Look at this compound and give its reported logP. CC1CCCN(Cc2c(-c3nnc(SC(C)C)n3-c3ccccc3)n(C)c3ccc(F)cc23)C1 (stereo not given)
6.18

// query: COc1ccc(CNCc2c(-c3nnc(SC(C)C)n3-c3ccccc3)n(C)c3ccc(F)cc23)cc1
6.42

How about this compound: COc1cc(NCc2c(-c3nnc(SC(C)C)n3-c3ccccc3)n(C)c3ccccc23)cc(OC)c1OC
5.8

Follow-up item: CC(C)Sc1nnc(-c2c(CNCCCN3CCOCC3)c3ccccc3n2C)n1-c1ccccc1
4.22
